These data points were gathered from ChEMBL document CHEMBL1201862.

Catalogue of GI50 readings, one per entry.
test system: COLO 205; assay: NCI tumour cell line growth inhibition, 48 h
Calls of active or inactive are those of the source. No stated cut-off is given here; in the data, active = GI50 up to about 1.1 µM and inactive = higher.

Solved entries (count: 3):
> print(dat)
                                   compound             reported
1  O=C(O)c1ccc(C2C3C=CC(C3)C2[N+](=O)[O-])cc1 (stereo not given)  > 100 µM (inactive)
2  CC(C)(CN1CCCCC1)C(=O)CC(SCCN)c1ccc(Cl)cc1 (stereo not given)    1.6 µM (inactive)
3                  N#Cc1nc(CSCc2ccccc2)oc1N  > 100 µM (inactive)

Now take the following compound into account.
Fill blank: measured GI50 of the compound COC(=O)C(=O)C(C(=O)C=C(C)C)C(=O)C(=O)Nc1cc(C(F)(F)F)ccc1Cl (stereo not given) is ____.
52.2 µM (inactive)

* * *

system: IGROV-1; test: NCI tumour cell line growth inhibition, 48 h
The source made the active and inactive calls. Rule as the data show it: active = GI50 up to about 1.1 µM and inactive = higher.
Hi there, use one of these labels in your reply, thanks! 1.0 (active), 0.0 (inactive)

molecule	subject of test	qualitative label
CCc1ncnc2cc(OCC3CO3)c(OC)cc12 (centres undefined)	IGROV-1	1.0
CC(C)(C)OC(=O)NCC(c1c[nH]c2ccccc12)c1c[nH]c2ccccc12	IGROV-1	0.0
COC(=O)c1sc2c(c1C(=O)OC)/C(=N/c1ccc(OC)cc1)S/C2=N\c1ccc(OC)cc1	IGROV-1	0.0

Outcome logged for CCNc1nc2c(ncn2C2CC(O)C(COP(=O)(O)O)O2)c(=O)[nH]1 (centres undefined) in this assay:
0.0

Outcome logged for CCCCCCCC(CC(=O)O)OC(=O)CC(CCCCCCC)OC1OC(C)C(O)C(O)C1OC1OC(C)C(O)C(O)C1O (centres undefined) in this assay:
0.0

Outcome logged for "COc1cc2oc(=O)ccc2cc1C(=O)CC(C)C" in this assay:
0.0

Outcome logged for "O=c1[nH]c2nc3ccccc3c(=O)n2/c1=C/c1ccc(O)cc1" in this assay:
0.0

Outcome logged for "CC(=O)c1ccc(O)c(CN(C2CCCCC2)C2CCCCC2)c1O" in this assay:
0.0

Outcome logged for "N#CC1N(C(=O)c2ccc(F)cc2)c2ccccc2N1C(=O)c1ccc(F)cc1" in this assay:
0.0

Outcome logged for "O=C(N/N=C/c1ccc(Cl)cc1)c1ccccc1Nc1ccccc1C(=O)N/N=C/c1ccc(Cl)cc1" in this assay:
0.0

Outcome logged for Cc1nc2ccccc2n1COC(Cn1ccnc1)c1ccc(Cl)cc1Cl (centres undefined) in this assay:
0.0

Outcome logged for C=C(NC(=O)C(=C)NC(=O)c1csc(C2=NC3c4csc(n4)C4NC(=O)c5csc(n5)C(C(C)(O)C(C)O)NC(=O)C5CSC(=N5)/C(=C/C)NC(=O)C(C(C)O)NC(=O)c5csc(n5)C3(CC2)NC(=O)C(C)NC(=O)C(=C)NC(=O)C(C)NC(=O)C(C(C)CC)NC2C=Cc3c(C(C)O)cc(nc3C2O)C(=O)OC4C)n1)C(N)=O (centres undefined) in this assay:
0.0

Outcome logged for "COc1ccc([C@@H]2CC(=O)NCCCNCCCCNCCCN2)cc1" in this assay:
0.0

Outcome logged for "COc1ccc(/C=C/c2cc(O)cc(OC)c2)cc1" in this assay:
0.0
